B1: HDV Ribozyme (parent)
chain: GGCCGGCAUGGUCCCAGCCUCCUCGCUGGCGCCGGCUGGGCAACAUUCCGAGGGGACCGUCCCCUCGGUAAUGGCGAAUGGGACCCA

- Variants of: B1
- Experiment Summary: self-cleavage, relative activity (ratio to wild type); higher = more cleavage; co-transcriptional
If the reported self-cleavage equals or exceeds 0.3, assign T. If not, assign F.

These solved cases illustrate the format of a correct answer.
C3A G40U :: F
C3A C26U :: T

From here, focus on the item given below.
(Q) Please indicate if the recorded self-cleavage for G39A A42G meets or exceeds 0.3.
(A) F
